# Tested on: Mus musculus
# protocolSummary: Analgesic activity in Swiss albino mouse assessed as inhibition of acetic acid-induced writhing at 5 mg/kg, ip administered 30 mins prior to acetic acid challenge and measured after 30 mins relative to control
# Type: functional
# assayConditions: time 60.0 min
Active and inactive are the calls of the source. The rule behind the calls is not given here.
Can you answer with just one of these options? active, inactive

Request: What did this assay record as the result for "CCOC(=O)[C@H](OCc1cnnn1[C@@H](Cc1c[nH]c2ccccc12)C(=O)OC)[C@@H](OCc1cnnn1[C@@H](Cc1c[nH]c2ccccc12)C(=O)OC)C(=O)OCC" ?
Result: inactive

Request: What did this assay record as the result for "CCOC(=O)[C@H](OCc1cnnn1[C@@H](CO)C(=O)OC)[C@@H](OCc1cnnn1[C@@H](CO)C(=O)OC)C(=O)OCC" ?
Result: active

Request: What did this assay record as the result for "CCOC(=O)Cn1nncc1CO[C@@H](C(=O)OCC)[C@@H](OCc1cnnn1CC(=O)OCC)C(=O)OCC" ?
Result: active

Request: What did this assay record as the result for "COC(=O)[C@H](Cc1ccc(O)cc1)n1nncc1COc1ccc2ccccc2c1-c1c(OCc2cnnn2[C@@H](Cc2ccc(O)cc2)C(=O)OC)ccc2ccccc12" ?
Result: inactive

Request: What did this assay record as the result for "O=C(O)[C@H](OCc1cnnn1[C@@H](Cc1ccccc1)C(=O)O)[C@@H](OCc1cnnn1[C@@H](Cc1ccccc1)C(=O)O)C(=O)O" ?
Result: inactive

Request: What did this assay record as the result for "CCOC(=O)[C@H](OCc1cnnn1[C@@H](Cc1ccc(O)cc1)C(=O)OC)[C@@H](OCc1cnnn1[C@@H](Cc1ccc(O)cc1)C(=O)OC)C(=O)OCC" ?
Result: inactive
